FYI, the data here is from patent US10159685B2.

A collection of compounds and their measured Cell viability of bVSMCs after seven days (MTT signal, relative to control)
Test system: bovine vascular smooth muscle cells (bVSMCs)
Assay type: cell-based
condition.notes: 100 uM, 7 days, MTT, mean of three experiments
Marks after values point to notes of the source that are not given here.

Worked set:
O=C1NCCc2c(OCCCCN3CCCCC3)cccc21 [DPQ] : 89.87*
CN(C)CC(=O)Nc1ccc2[nH]c(=O)c3ccccc3c2c1.Cl [PJ34] : 53.72*

Note: attention shifts to another entry.
Value lookup for Cell viability of bVSMCs after seven days (MTT signal, relative to control); key = NC(=O)c1cccc(N)c1 [3-AB, 3-aminobenzamide] 92.48*

----------
Cell viability of bVSMCs after seven days (MTT signal, relative to control) for assorted compounds
Test system: bovine vascular smooth muscle cells (bVSMCs)
Assay type: cell-based
condition.notes: 5 uM, 7 days, MTT, mean of three experiments
Marks after values point to notes of the source that are not given here.

Hello, I am looking for reported Cell viability of bVSMCs after seven days (MTT signal, relative to control) with bovine vascular smooth muscle cells (bVSMCs) for CN(C)CC(=O)Nc1ccc2[nH]c(=O)c3ccccc3c2c1.Cl [PJ34] . Could you help? 95.74

Request - read-out Cell viability of bVSMCs after seven days (MTT signal, relative to control) | tested on bovine vascular smooth muscle cells (bVSMCs) | compound O=C1CCc2cc(OCCCCc3nnnn3C3CCCCC3)ccc2N1 [cilostazol] 86.87*

Given the entry O=C1NCCc2c(OCCCCN3CCCCC3)cccc21 [DPQ] , what Cell viability of bVSMCs after seven days (MTT signal, relative to control) was observed with bovine vascular smooth muscle cells (bVSMCs)? 94.96

----------
Test system: human monocyte-macrophages (HMMs)
experiment: MTT toxicity assay, HMMs, seven days (Example 3)
Format: cell-based
condition.notes: at a concentration of 100 μM, 7 days
readout.label: Toxicity to HMMs (in words)

Check out these entries, answers already filled in.
COc1ccccc1Oc1c(NS(=O)(=O)c2ccc(C(C)(C)C)cc2)nc(-c2ncccn2)nc1OCCO [bosentan MH, Bosentan monohydrate] : most toxic
COc1ccc([C@@H]2Sc3ccccc3N(CCN(C)C)C(=O)[C@@H]2OC(C)=O)cc1 [Diltiazem, diltiazem] : most toxic
O=C1CCc2cc(OCCCCc3nnnn3C3CCCCC3)ccc2N1 [cilostazol] : relatively innocuous
CC(=O)CCCCn1c(=O)c2c(ncn2C)n(C)c1=O [Pentoxifylline, pentoxifylline] : relatively innocuous
CN(C)CC(=O)Nc1ccc2[nH]c(=O)c3ccccc3c2c1.Cl [PJ34] : most toxic
NC(=O)c1cccc(N)c1 [3-AB, 3-aminobenzamide] : relatively innocuous

We now examine a further molecule.
# Toxicity to HMMs (in words) lookup, item O=C1NCCc2c(OCCCCN3CCCCC3)cccc21 [DPQ] relatively innocuous

----------
System: human monocyte-macrophages (HMMs)
experiment: MTT toxicity assay, HMMs, seven days (Example 3)
Assay type: cell-based
condition.notes: 10 uM, 7 days, MTT, mean of three experiments
readout.label: Cell viability by MTT, percent of control
The answer should be written as a number, with no unit following it.

Tell me the measured Cell viability by MTT, percent of control of COc1ccccc1Oc1c(NS(=O)(=O)c2ccc(C(C)(C)C)cc2)nc(-c2ncccn2)nc1OCCO [bosentan MH, Bosentan monohydrate] , please. 79.36

Which Cell viability by MTT, percent of control is reported for this molecule? COc1ccc([C@@H]2Sc3ccccc3N(CCN(C)C)C(=O)[C@@H]2OC(C)=O)cc1 [Diltiazem, diltiazem] 92.45

Look at this molecule and give its reported Cell viability by MTT, percent of control. NC(=O)c1cccc(N)c1 [3-AB, 3-aminobenzamide] 97.34

Cell viability by MTT, percent of control lookup needed for CN(C)CC(=O)Nc1ccc2[nH]c(=O)c3ccccc3c2c1.Cl [PJ34] , thanks. 77.14
